- Method notes: in vivo
- Parameters: species or system mouse
- Test parameters: mouse, in vivo, iv, 250 mg/kg, 5 min; mice, 250 mg/kg iv; read-out: Serum levels
Endpoint label: concentration at 5 min

- [N-]=[N+]=N[C@H]1C[C@H](n2ccc(=O)[nH]c2=O)O[C@@H]1CO [CS-87, 3'-azido-2',3'-dideoxyuridine]: 71.3 µg/mL

----------
- Method notes: in vivo
- Type: in vivo, rhesus monkey
- Test parameters: rhesus monkey, in vivo; rhesus monkeys, oral dose of 920 mg; read-out: clearance (converted)
Endpoint label: CL/F (mL/min/kg)

- [N-]=[N+]=N[C@H]1C[C@H](n2ccc(=O)[nH]c2=O)O[C@@H]1CO: 29

----------
- Method notes: in vivo
- Parameters: species or system mouse
- Test parameters: mouse, in vivo, iv, 250 mg/kg, 34 min; mice, 250 mg/kg iv; read-out: Ratio: % B/S
Endpoint label: Kp at 34 min

- [N-]=[N+]=N[C@H]1C[C@H](n2ccc(=O)[nH]c2=O)O[C@@H]1CO [CS-87, 3'-azido-2',3'-dideoxyuridine]: 0.102

----------
- System: Mouse ecotropic (Cas-Br-M)
- Method notes: Median effective antiviral concentration against mouse ecotropic virus (Table 5)
- Assay type: cell-based, murine retrovirus
- Test parameters: unidentified retrovirus
Endpoint label: EC50 (µM)

• Cc1cn([C@H]2C[C@H](N=[N+]=[N-])[C@@H](CO)O2)c(=O)[nH]c1=O [AZT, 3'-azido-3'-deoxythymidine, reference compound] = 0.007
• [N-]=[N+]=N[C@H]1C[C@H](n2ccc(N)nc2=O)O[C@@H]1CO [CS-91, 3' azido 2',3'-dideoxycytidine] = 77.9
• [N-]=[N+]=N[C@H]1C[C@H](n2ccc(=O)[nH]c2=O)O[C@@H]1CO [CS-87, 3'-azido-2',3'-dideoxyuridine] = 9.1

----------
- Method notes: in vivo
- Assay type: in vivo, rhesus monkey
- Test parameters: rhesus monkey, in vivo; rhesus monkeys, oral dose of 920 mg; read-out: elimination t1/2 k (converted)
Endpoint label: half-life (min)

- [N-]=[N+]=N[C@H]1C[C@H](n2ccc(=O)[nH]c2=O)O[C@@H]1CO: 28.8

----------
- Method notes: in vivo
- Set-up: species or system mouse
- Test parameters: mouse, in vivo, iv, 250 mg/kg, 71 min; mice, 250 mg/kg iv; read-out: Serum levels
Endpoint label: concentration at 71 min

• [N-]=[N+]=N[C@H]1C[C@H](n2ccc(=O)[nH]c2=O)O[C@@H]1CO = 24500 ng/mL

----------
- Method notes: in vitro
- Assay type: cell-based
- Test parameters: human; PBM cells, FIG. 2b; read-out: concentration tolerated by PBM cells before significant inhibition is noted
Endpoint label: MNTC

• [N-]=[N+]=N[C@H]1C[C@H](n2ccc(=O)[nH]c2=O)O[C@@H]1CO = ~200 µM

----------
- Test system: SIV (SMM)
- Method notes: Median effective antiviral concentration against SIV (Table 5)
- Type: cell-based, simian immunodeficiency virus
- Test parameters: Simian immunodeficiency virus
Endpoint label: EC50 (nM)

* [N-]=[N+]=N[C@H]1C[C@H](n2ccc(N)nc2=O)O[C@@H]1CO [CS-91, 3' azido 2',3'-dideoxycytidine] | 1160
* Cc1cn([C@H]2C[C@H](N=[N+]=[N-])[C@@H](CO)O2)c(=O)[nH]c1=O [AZT, 3'-azido-3'-deoxythymidine, reference compound] | 2
* [N-]=[N+]=N[C@H]1C[C@H](n2ccc(=O)[nH]c2=O)O[C@@H]1CO [CS-87, 3'-azido-2',3'-dideoxyuridine] | 200

Where do the numbers come from? From patent US4916122A.
